# Test system: DLD-1
# ASSAY_NOTES: Inhibition of proteasome activity in human DLD1 cells expressing 4-ubiquitin luciferase reporter protein assessed increase of luciferase signal at 1 uM after 7 hrs relative to control

- COMPOUND: "C=C(C(=O)[C@H](OC(C)=O)[C@@H](C)[C@H]1[C@@H](OC(C)=O)C[C@@]2(C)[C@@H]3CC[C@H]4[C@H](C)C(=O)C=C[C@@]45C[C@@]35CC[C@]12C)C(C)C"
  fold change (FC): 7.2
- COMPOUND: "C=C(C(=O)[C@H](O)[C@@H](C)[C@H]1[C@@H](OC(C)=O)C[C@@]2(C)[C@@H]3CC[C@H]4[C@H](C)C(=O)C=C[C@@]45C[C@@]35CC[C@]12C)[C@@H](C)CO"
  fold change (FC): 45
- COMPOUND: "C=C(C(=O)[C@H](OC(C)=O)[C@@H](C)[C@H]1[C@@H](OC(C)=O)C[C@@]2(C)[C@@H]3CC[C@H]4[C@H](C)C(=O)[C@H](O)[C@H]5C[C@]54C3=CC[C@]12C)[C@@H](C)CO"
  fold change (FC): 1.2
- COMPOUND: "C=C(C(=O)[C@H](OC(C)=O)[C@@H](C)[C@H]1[C@@H](OC(C)=O)C[C@@]2(C)[C@@H]3[C@H]4O[C@H]4[C@H]4[C@H](C)C(=O)C=C[C@@]45C[C@@]35CC[C@]12C)[C@@H](C)CO"
  fold change (FC): 2.8
- COMPOUND: "C=C(C(=O)[C@H](OC(C)=O)[C@@H](C)[C@H]1[C@@H](OC(C)=O)C[C@@]2(C)[C@@H]3CC[C@H]4[C@H](C)C(=O)C=C[C@@]45C[C@@]35CC[C@]12C)[C@H](C)CO"
  fold change (FC): 1.5
- COMPOUND: "C=C(C(=O)[C@H](OC(C)=O)[C@@H](C)[C@H]1[C@@H](OC(C)=O)C[C@@]2(C)[C@@H]3CC[C@H]4[C@H](C)C(=O)CC[C@@]45C[C@@]35CC[C@]12C)[C@@H](C)CO"
  fold change (FC): 0.9
- COMPOUND: "C=C(C(=O)C[C@@H](C)[C@H]1[C@@H](OC(C)=O)C[C@@]2(C)[C@@H]3CC[C@H]4[C@](C)(C(=O)O)[C@@H](O)CC[C@@]45C[C@@]35CC[C@]12C)C(C)CO (stereo partly specified)"
  fold change (FC): 1
- COMPOUND: "C=C(C(=O)[C@H](O)[C@@H](C)[C@H]1[C@@H](OC(C)=O)C[C@@]2(C)[C@@H]3C[C@@H](O)[C@H]4[C@H](C)C(=O)C=C[C@@]45C[C@@]35CC[C@]12C)[C@@H](C)CO"
  fold change (FC): 1.1
- COMPOUND: "C=C(C(=O)[C@H](O)[C@@H](C)[C@H]1[C@@H](OC(C)=O)C[C@@]2(C)[C@@H]3CC[C@H]4[C@](C)(C(=O)O)[C@@H](O)CC[C@@]45C[C@@]35CC[C@]12C)C(C)C"
  fold change (FC): 1.2
- COMPOUND: "C=C(C(=O)[C@H](O)[C@@H](C)[C@H]1[C@@H](OC(C)=O)C[C@@]2(C)[C@@H]3CC[C@H]4[C@H](C)C(=O)C=C[C@@]45C[C@@]35CC[C@]12C)C(C)C"
  fold change (FC): 2.4
- COMPOUND: "C=C(C(=O)[C@H](O)[C@@H](C)[C@H]1[C@@H](OC(C)=O)C[C@@]2(C)[C@@H]3CC[C@H]4[C@H](C)C(=O)C=C[C@]45C[C@]35CC[C@]12C)[C@@H](C)CO"
  fold change (FC): 0.9
- COMPOUND: "C=C(C(=O)[C@H](OC(C)=O)[C@@H](C)[C@H]1[C@@H](OC(C)=O)C[C@@]2(C)[C@@H]3CC[C@H]4[C@H](C)C(=O)C=C[C@@]45C[C@@]35CC[C@]12C)[C@@H](C)COC(C)=O"
  fold change (FC): 12
- COMPOUND: "C=C(C(=O)[C@H](OC(C)=O)[C@@H](C)[C@H]1[C@@H](OC(C)=O)C[C@@]2(C)[C@@H]3CC[C@H]4[C@H](C)C(=O)C=C[C@]45C[C@]35CC[C@]12C)[C@@H](C)CO"
  fold change (FC): 2
- COMPOUND: "C=C(C(=O)[C@H](OC(C)=O)[C@@H](C)[C@H]1[C@@H](OC(C)=O)C[C@@]2(C)[C@@H]3C[C@@H](O)[C@H]4[C@H](C)C(=O)C=C[C@@]45C[C@@]35CC[C@]12C)[C@@H](C)CO"
  fold change (FC): 5.1
- COMPOUND: "CC(=O)O[C@H]1C[C@@]2(C)[C@@H]3CC[C@H]4[C@H](C)C(=O)C=C[C@@]45C[C@@]35CC[C@]2(C)[C@H]1[C@H](C)[C@@H](O)C(=O)C=C(C)C"
  fold change (FC): 1.1
- COMPOUND: "C=C(C(=O)[C@H](O)[C@@H](C)[C@H]1[C@@H](OC(C)=O)C[C@@]2(C)[C@@H]3CC[C@H]4[C@H](C)C(=O)C[C@H](O)[C@@]45C[C@@]35CC[C@]12C)[C@@H](C)CO"
  fold change (FC): 1.6
